assay_notes: Ionization constant, pKa of the compound in water in presence of 80% acetonitrile cosolvent by PLRP-S based RP-HPLC analysis
Type: physicochemical
experimental_parameters: water with 80% acetonitrile cosolvent
measured_property: pKa
Numbers only.

Q: Consider the molecule shown here: Cc1cccc(C)c1NC(=O)C1CCCCN1C (stereo unspecified) [MEPIVACAINE] What is its recorded pKa?
Result: 5.9

---

assay_notes: Lipophilicity, log P of the compound in octanol/water system by potentiometric titration method
Type: physicochemical
experimental_parameters: read-out: logP
Provide the reported logP of each item.
Numbers only.

{"structure_notation": "Nc1cccc(O)c1", "quantitative_result": 0.1}

Q: Bench note: what logP did CCCCC(=O)N(Cc1ccc(-c2ccccc2-c2nnn[nH]2)cc1)[C@H](C(=O)O)C(C)C show?
Result: 3.2

Source of measurements: ChEMBL document CHEMBL5252580
